SYSTEM: human mGluR1 (Homo sapiens (Human), UniProt Q13255)
Sequence (Q13255 19-1194): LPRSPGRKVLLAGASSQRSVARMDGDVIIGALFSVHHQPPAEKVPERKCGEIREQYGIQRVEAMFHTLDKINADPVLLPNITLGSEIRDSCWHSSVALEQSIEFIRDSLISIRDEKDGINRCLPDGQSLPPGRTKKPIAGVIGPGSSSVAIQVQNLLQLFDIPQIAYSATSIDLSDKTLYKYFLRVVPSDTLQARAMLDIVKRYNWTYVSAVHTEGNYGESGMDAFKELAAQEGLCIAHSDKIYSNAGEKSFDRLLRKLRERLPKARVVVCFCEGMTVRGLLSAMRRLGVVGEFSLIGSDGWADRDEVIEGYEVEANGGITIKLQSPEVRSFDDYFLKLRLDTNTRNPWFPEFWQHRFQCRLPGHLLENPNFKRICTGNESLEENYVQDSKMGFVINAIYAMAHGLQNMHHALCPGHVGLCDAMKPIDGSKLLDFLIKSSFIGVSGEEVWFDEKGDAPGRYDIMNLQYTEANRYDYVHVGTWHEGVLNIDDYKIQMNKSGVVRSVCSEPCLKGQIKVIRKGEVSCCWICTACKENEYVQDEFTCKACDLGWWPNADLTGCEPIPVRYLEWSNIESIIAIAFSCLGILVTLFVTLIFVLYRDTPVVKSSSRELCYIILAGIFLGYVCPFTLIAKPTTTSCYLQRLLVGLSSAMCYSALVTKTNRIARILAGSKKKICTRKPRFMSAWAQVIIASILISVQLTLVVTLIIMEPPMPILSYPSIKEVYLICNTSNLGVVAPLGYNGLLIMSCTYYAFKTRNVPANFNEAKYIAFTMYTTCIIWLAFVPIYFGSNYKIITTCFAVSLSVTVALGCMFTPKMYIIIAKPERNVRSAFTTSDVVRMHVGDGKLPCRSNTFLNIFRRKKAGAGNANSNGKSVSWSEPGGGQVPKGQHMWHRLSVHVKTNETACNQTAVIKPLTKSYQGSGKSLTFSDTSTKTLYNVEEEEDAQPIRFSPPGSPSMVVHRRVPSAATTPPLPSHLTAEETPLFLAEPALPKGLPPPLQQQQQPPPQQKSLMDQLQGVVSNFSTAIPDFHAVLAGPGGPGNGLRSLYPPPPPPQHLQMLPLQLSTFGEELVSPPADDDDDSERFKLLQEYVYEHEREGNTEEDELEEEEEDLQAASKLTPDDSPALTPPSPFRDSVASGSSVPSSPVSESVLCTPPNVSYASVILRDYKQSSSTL
EXPERIMENT SUMMARY: mGluR1 antagonism, L-glutamate induced intracellular calcium increase (FLIPR) in CHO cells stably expressing human mGluR1
CONDITION SUMMARY: L-glutamate induced intracellular calcium, CHO cells expressing human mGluR1, FLIPR
VALUE KIND: IC50

// compound COc1cc(C2=NCC(=O)N3CCc4c(cccc4-c4ccncc4F)C3=C2)ccn1 [Example 54] , assay human mGluR1 (Homo sapiens (Human), UniProt Q13255), IC50 value: > 10 µM

Fill in: human mGluR1 (Homo sapiens (Human), UniProt Q13255) IC50 for COc1ccc(C2=NCC(=O)N3CCc4c(OC)cccc4C3=C2)cc1 [Example 17] = > 10 µM

human mGluR1 (Homo sapiens (Human), UniProt Q13255) data for COCc1cn(C2=NCC(=O)N3CCc4c(cccc4-c4cscn4)C3=C2)cn1 [Example 101] ; its IC50: > 10 µM

The reported human mGluR1 (Homo sapiens (Human), UniProt Q13255) IC50 of COC(=O)c1cn(C2=NCC(=O)N3CCc4c(I)cccc4C3=C2)cn1 [Example 66] is > 10 µM

The compound O=C1CN=C(n2cnc(C3CC3)c2)C=C2c3cccc(-c4cncs4)c3CCN12 [Example 88d] on human mGluR1 (Homo sapiens (Human), UniProt Q13255): IC50 was > 2 µM

Reported human mGluR1 (Homo sapiens (Human), UniProt Q13255) IC50 for item COc1cccc2c1CCN1C(=O)CN=C(c3ccnc(N(C)C)c3)C=C21 [Example 21] was 5.2 µM

Sample COCCOc1cccc(C2=NCC(=O)N3CCc4c(OC)cccc4C3=C2)c1 [Example 12] , system: human mGluR1 (Homo sapiens (Human), UniProt Q13255). Its IC50 is 1.3 µM

So the reported IC50 for Cn1cnc(C2=NCC(=O)N3CCc4c(I)cccc4C3=C2)c1 [Example 36] , on human mGluR1 (Homo sapiens (Human), UniProt Q13255), turned out to be 6.9 µM

For the compound CCc1cn(C2=NCC(=O)N3CCc4c(cccc4-c4ncco4)C3=C2)cn1 [Example 74] , the measured IC50 on human mGluR1 (Homo sapiens (Human), UniProt Q13255) was 1.2 µM

Observed IC50, human mGluR1 (Homo sapiens (Human), UniProt Q13255), O=C1CN=C(c2cccs2)C=C2c3cccc(C(F)(F)F)c3CCN12 [Example 4] : 0.15 µM

Lab note: compound COCc1cn(C2=NCC(=O)N3CCc4c(OC(C)C)cccc4C3=C2)cn1 [Example 142] tested on human mGluR1 (Homo sapiens (Human), UniProt Q13255); recorded IC50 was > 2 µM

The measured IC50 that O=C1CN=C(n2cnc(C3CC3)n2)C=C2c3cccc(-c4ncccc4F)c3CCN12 [Example 88c] showed for human mGluR1 (Homo sapiens (Human), UniProt Q13255) is > 10 µM

# lookup: COCc1cn(C2=NCC(=O)N3CCc4c(cccc4-c4nccs4)C3=C2)cn1 [Example 71] on human mGluR1 (Homo sapiens (Human), UniProt Q13255), IC50 = 6.4 µM

Field IC50 (human mGluR1 (Homo sapiens (Human), UniProt Q13255)), entry O=C1CN=C(n2cnc(-c3ccno3)c2)C=C2c3cccc(C4CC4)c3CCN12 [Example 123b] : 2.34 µM

Assay human mGluR1 (Homo sapiens (Human), UniProt Q13255), sample O=C1CN=C(n2cnc(C3CC3)c2)C=C2c3cccc(-c4ccc(O)nc4)c3CCN12 [Example 99c] , IC50 read: > 10 µM

So the reported IC50 for O=C1CN=C(n2cnc(C(F)F)c2)C=C2c3ccnc(C4CC4)c3CCN12 [Example 110d] , on human mGluR1 (Homo sapiens (Human), UniProt Q13255), turned out to be > 10 µM

Bench note, human mGluR1 (Homo sapiens (Human), UniProt Q13255): COCc1ncn(C2=NCC(=O)N3CCc4c(ccc(F)c4C4CC4)C3=C2)n1 [Example 99p] , IC50 reads 0.814 µM

The compound O=C1CN=C(n2cnc(-c3ccncc3)c2)C=C2c3cccc(C4CC4)c3CCN12 [Example 123f] , when measured on human mGluR1 (Homo sapiens (Human), UniProt Q13255), yielded IC50 of > 2 µM

Cc1cn(C2=NCC(=O)N3CCc4c(cccc4-c4cccnc4)C3=C2)cn1 [Example 79] on human mGluR1 (Homo sapiens (Human), UniProt Q13255) gives IC50 = > 10 µM

Reported IC50 (human mGluR1 (Homo sapiens (Human), UniProt Q13255)) for entry Cc1cn(C2=NCC(=O)N3CCc4c(cccc4-c4cnccn4)C3=C2)cn1 [Example 106b] is 7.33 µM

The value of IC50 recorded for O=C1CN=C(n2cnc(C3CC3)n2)C=C2c3cccc(-c4cccc(F)n4)c3CCN12 [Example 134] when tested on human mGluR1 (Homo sapiens (Human), UniProt Q13255) reads > 10 µM

Hey, human mGluR1 (Homo sapiens (Human), UniProt Q13255) data for COc1cccc(C2=NCC(=O)N3CCc4c(cccc4C4CCCO4)C3=C2)c1 (centres unmarked) [Example 57] : IC50 came out at 4.5 µM

human mGluR1 (Homo sapiens (Human), UniProt Q13255) IC50 of Cc1nc(-c2cccc3c2CCN2C(=O)CN=C(n4cnc(C5CC5)c4)C=C32)co1 [Example 108] is 3.3 µM

Bench note, human mGluR1 (Homo sapiens (Human), UniProt Q13255): O=C1CN=C(c2cccs2)C=C2c3cccc(Br)c3CCN12 [Example 29] , IC50 reads 0.008 µM

Fill in: human mGluR1 (Homo sapiens (Human), UniProt Q13255) IC50 for O=C1CN=C(n2cnc(-c3ncco3)c2)C=C2c3cccc(-c4cccnc4F)c3CCN12 [Example 106] = > 10 µM

Known value: human mGluR1 (Homo sapiens (Human), UniProt Q13255) IC50 of the compound Cc1cn(C2=NCC(=O)N3CCc4c(cccc4-c4ccc(F)nc4)C3=C2)cn1 [Example 81] equals > 10 µM

Entry COc1ccc(-c2cccc3c2CCN2C(=O)CN=C(n4cnc(C5CC5)c4)C=C32)cn1 [Example 99d] , human mGluR1 (Homo sapiens (Human), UniProt Q13255) data, IC50 value: > 2 µM

Value sought: IC50, system human mGluR1 (Homo sapiens (Human), UniProt Q13255), item COc1cc(C2=NCC(=O)N3CCc4c(OC)cccc4C3=C2)ccn1 [Example 8] . Result: 4.9 µM

Param item: Cc1ncn(C2=NCC(=O)N3CCc4c(cccc4C4CCC4)C3=C2)n1 [Example 92] ; param system: human mGluR1 (Homo sapiens (Human), UniProt Q13255); output IC50: 0.636 µM

With human mGluR1 (Homo sapiens (Human), UniProt Q13255) as the test system, COc1cn(C2=NCC(=O)N3CCc4c(cccc4C4CC4)C3=C2)cn1 [Example 123d] showed IC50 of 0.511 µM

The reported IC50 value, human mGluR1 (Homo sapiens (Human), UniProt Q13255), for CC(C)(C)c1cn(C2=NCC(=O)N3CCc4c(cccc4C4CCCO4)C3=C2)cn1 (centres unmarked) [Example 112] reads > 10 µM

Here CCc1cn(C2=NCC(=O)N3CCc4c(cccc4C4CCCO4)C3=C2)cn1 (racemic) [Example 111] was tested on human mGluR1 (Homo sapiens (Human), UniProt Q13255), and its IC50 came to 9.3 µM

Summary line: COc1cccc(C2=NCC(=O)N3CCc4c(cccc4-c4ccccc4)C3=C2)c1 [Example 49] , human mGluR1 (Homo sapiens (Human), UniProt Q13255), reported IC50 = > 10 µM

Let me check: Cn1cc(C2=NCC(=O)N3CCc4c(CO)cccc4C3=C2)cn1 [Example 46] , system human mGluR1 (Homo sapiens (Human), UniProt Q13255), measured IC50 is 2.2 µM

The reported human mGluR1 (Homo sapiens (Human), UniProt Q13255) IC50 of O=C1CN=C(n2cnc(C3CCC3)c2)C=C2c3cccc(-n4cccn4)c3CCN12 [Example 69] is > 10 µM
